Listed here are compounds together with their documented Percent Effect.
# System: Wolbachia pipientis
# Protocol description: Anti-Wolbachia Cell-Based Screen
# Assay type: functional
# Set-up: scale not given: in the data most compounds retested in dose-response had high values
# Applied conditions: 5 µM
Hit rate of the full screen: of about 48,000 compounds, about 13,000 (27%) showed an effect of 50% or more. Some of the results follow.
Measured quantity: Percent Effect (%)

>>> quantitative_result("Cn1cnc(S(=O)(=O)N2C[C@H](OCC3CC3)[C@H]3OCCC[C@H]32)c1.O=C(O)C(F)(F)F")
-7.803
>>> quantitative_result("CCc1nc(C2CCCN2CC(=O)Nc2c(C)nn(C)c2C)no1 (configuration not stated)")
-9.932
>>> quantitative_result("CC(Nc1ccc(CN2CCCC2=O)cc1)C(=O)N(C)CCC#N (configuration not stated)")
4.456
>>> quantitative_result("CN(c1ccc(C#N)cn1)C1CCCN(Cc2noc(C3CC3)n2)C1 (configuration not stated)")
3.102
>>> quantitative_result("NC(=O)CCn1ccc(NC(=O)c2ccc(OCC3CC3)cc2)n1")
-25.96
>>> quantitative_result("CNC(=O)C1(c2cnccn2)CCCN1C(=O)c1ncccc1C (configuration not stated)")
109.2
>>> quantitative_result("CCc1nc(CN(C)C2CCN(CCn3cc(C#N)cn3)C2)no1 (configuration not stated)")
10.97
>>> quantitative_result("Cn1c(NC(=O)CNC(=O)C2CC2)nc2cc(Cl)ccc21")
-0.3531
>>> quantitative_result("CS(=O)(=O)N1C[C@H]2N(c3ncccn3)CCC[C@@]2(C(=O)NCC2CC2)C1")
106.2
>>> quantitative_result("Cc1nc(O)c2nnn(C[C@H]3CCCN3C(=O)C(C)(C)C)c2n1")
2.685
>>> quantitative_result("CCc1nc(C2CCCN2CC(=O)Nc2sc(C)c(C)c2C)no1 (configuration not stated)")
-4.711
>>> quantitative_result("O=C1NCC(c2ccc(F)cc2)Cc2[nH]c(CCN3CCCC3)nc21 (configuration not stated)")
95.37
>>> quantitative_result("COC(=O)N1CCCC(NC(=O)NCc2nc(C)cs2)C1 (configuration not stated)")
-5.295
>>> quantitative_result("CN(C)c1nc2c(c(=O)[nH]1)CCN(C(=O)C1CCCO1)C2 (configuration not stated)")
4.175
>>> quantitative_result("CC(=O)NCc1ccc(-c2ccccc2C(=O)O)cn1")
125.9
>>> quantitative_result("CC1(C)CNC(=O)c2nc(CCN3CCOCC3)[nH]c2C1")
-31.15
>>> quantitative_result("CCc1nc(C2CCCN2CC(=O)Nc2nncs2)no1 (configuration not stated)")
-0.024
>>> quantitative_result("CN(CCCNC(=O)N1CCCC1c1ccsc1)c1ccccn1 (configuration not stated)")
7.927
>>> quantitative_result("Cc1cc(NC(=O)CN2CCCC2c2noc(C3CC3)n2)no1 (configuration not stated)")
3.572
>>> quantitative_result("CCN1CCN(c2ncnc3c2CCN(C(=O)C2CC2)C3)CC1")
-21.72
>>> quantitative_result("O=C(O)C(F)(F)F.O=S1(=O)NC[C@H]2CCN(Cc3ccccc3)CC[C@H]21")
-3.468
>>> quantitative_result("CCc1nc(C2CCCN2CC(=O)Nc2cc(C)on2)no1 (configuration not stated)")
106.9
>>> quantitative_result("O=C(C1CCOC1)N1CCc2ncnc(NC3CCC3)c2CC1 (configuration not stated)")
-0.188
>>> quantitative_result("Cc1nnc(NC(=O)CN2CCCC2c2noc(C3CC3)n2)s1 (configuration not stated)")
-18.02
>>> quantitative_result("Nc1nc2c(c(N3CCC(CCn4cccn4)CC3)n1)CCNCC2")
1.454
>>> quantitative_result("Cc1cnc(-c2nc(O)c3c(n2)CN(C(=O)C2CCOC2)CC3)cn1 (configuration not stated)")
177.2
>>> quantitative_result("CC(NC(=O)C(C)(C)C#N)c1ccc(OCC2CC2)c(F)c1 (configuration not stated)")
5.136
>>> quantitative_result("CS(=O)(=O)N1C[C@H]2CNC[C@@]2(C(=O)NCCOc2ccccc2)C1")
-7.447
>>> quantitative_result("CN(Cc1noc(C2CC2)n1)C1CCN(CCn2cc(C#N)cn2)C1 (configuration not stated)")
90.88
>>> quantitative_result("CCNC(=O)NC(=O)CN1CCOC(c2ccc(Br)cc2)C1 (configuration not stated)")
-12.38
>>> quantitative_result("Cc1nc(O)c2nnn(C[C@H]3CCCN3C(=O)c3ccc(F)cc3)c2n1")
99.59
>>> quantitative_result("CN(CC1CN(CCn2cc(C#N)cn2)CCO1)c1cccnn1 (configuration not stated)")
-17.7
>>> quantitative_result("CC(C)c1nc(CN(C)C2CCN(CC(F)(F)F)C2)no1 (configuration not stated)")
0.6339
>>> quantitative_result("Cc1ncsc1CCN1CCC(N(C)Cc2noc(C(C)C)n2)C1 (configuration not stated)")
6.438
>>> quantitative_result("CC(C)c1nc(CN(C)C2CCN(CCc3ccncc3)C2)no1 (configuration not stated)")
78.23
>>> quantitative_result("CC(=O)N1CCCCCC1C1CCN(Cc2nc(C3CC3)no2)CC1 (configuration not stated)")
-6.899
>>> quantitative_result("CC(=O)NCc1cccc(-n2ccnc2-c2cccc(C(=O)O)c2)c1")
-20.57
>>> quantitative_result("Cc1nc(CN(C)C2CCN(CCn3cc(C#N)cn3)C2)no1 (configuration not stated)")
105.6
>>> quantitative_result("Cc1cnn(CC(C)NCC(=O)Nc2ccc(Cl)cn2)c1 (configuration not stated)")
-4.944
>>> quantitative_result("O=C(C1CC1)N1CCc2c(ncnc2NCCc2nc3c(s2)CCC3)C1")
7.369
>>> quantitative_result("Cc1nc(O)c2nnn(C[C@H]3CCCN3C(=O)CCC3CCCC3)c2n1")
2.096
>>> quantitative_result("Cc1cnc(-c2nc(O)c3c(n2)CN(C(=O)C2CCCO2)CC3)cn1 (configuration not stated)")
141.1

---

Below, each entry is listed alongside its reported Percent Effect.
# Test system: Wolbachia pipientis
# Protocol description: Anti-Wolbachia Cell-Based Screen
# Format: functional
# Design: scale not given: in the data most compounds retested in dose-response had high values
# Applied conditions: 5 µM
The whole screen tested about 48,000 compounds, of which about 13,000 (27%) showed an effect of 50% or more. This is one part of the list.
Measured quantity: Percent Effect

>>> result("Cc1ccc2nc(C)c(C)c(C(=O)N3CCC4(CCO4)CC3)c2c1")
"-9.053%"
>>> result("Cc1ccccc1C(=O)NC1CCN(Cc2ncc(C(C)(C)C)o2)CC1")
"19.24%"
>>> result("Cc1cc(C(=O)Nc2ccc(CN3CCOCC3)cn2)n(C)n1")
"-8.587%"

---

# Test system: Wolbachia pipientis
# Protocol description: Anti-Wolbachia Cell-Based Screen
# Format: functional
# Design: scale not given: in the data most compounds retested in dose-response had high values
# Applied conditions: 5 µM
Out of some 48,000 compounds screened, about 13,000 (27%) showed an effect of 50% or more. This is one part of the list.
Listed below: Percent Effect values for each entry.
Measured quantity: Percent Effect (%)

>>> quantitative_result("O=C(CCc1ccc(F)c(F)c1)N1CCCCC1Cn1cccn1 (stereo not given)")
87.24
>>> quantitative_result("O=C(O)C(F)(F)F.O=C(O)C(F)(F)F.O=C(O)C(F)(F)F.c1cnc(N2CCN(C3CCC[C@@H]4CN(CC5CC5)C[C@H]34)CC2)nc1 (stereo not given in full)")
-9.573
>>> quantitative_result("Cc1nc(CNc2ccc(C(=O)NCc3ccco3)cc2C)no1")
-9.034
>>> quantitative_result("O=C(CCc1c(F)cccc1F)N1CCCCC1Cn1cccn1 (stereo not given)")
126.8
>>> quantitative_result("COc1ccc(CC(=O)N2CCCC2Cn2cccn2)cc1F (stereo not given)")
2.407
>>> quantitative_result("Cn1c(-c2ccccc2Cl)nc2cc(C(=O)NCC3(C)COC3)cnc21")
7.504
>>> quantitative_result("Cc1ccc(NC2CCN(C(=O)c3ccc(C#N)cc3)CC2)nn1")
103.2
>>> quantitative_result("Cc1nn(C)c2nc(N(CCN(C)C)C3CCCC3)sc12")
-1.05
>>> quantitative_result("Cc1cc(=O)[nH]c(-n2nc(C)c(CCC(=O)NCc3ccco3)c2C)n1")
133
>>> quantitative_result("Cc1csc(CNC(=O)CCCc2cccs2)n1")
21.24
>>> quantitative_result("CCCNC(=O)CCNC1CSCCc2ccccc21 (stereo not given)")
-10.65
>>> quantitative_result("CC1(C)CN(CC(F)(F)F)CCN1CC(=O)NC1CCCC1")
1.341
>>> quantitative_result("Cc1ccc(OCc2nnc(SCC3CCCN(C)C3)o2)cc1 (stereo not given)")
8.956
>>> quantitative_result("Cc1cn(CC(=O)NC2CCN(CC3CC3)CC2)c2ccccc12")
-11.31
>>> quantitative_result("CCCn1ncc(C(=O)NCCc2[nH]nc3c2CCCC3)c1C")
17.81

Values from ChEMBL document CHEMBL3988442
